# STUDY SYSTEM: UniProtKB Q8VIJ5
# Sequence (Q8VIJ5 whole entry): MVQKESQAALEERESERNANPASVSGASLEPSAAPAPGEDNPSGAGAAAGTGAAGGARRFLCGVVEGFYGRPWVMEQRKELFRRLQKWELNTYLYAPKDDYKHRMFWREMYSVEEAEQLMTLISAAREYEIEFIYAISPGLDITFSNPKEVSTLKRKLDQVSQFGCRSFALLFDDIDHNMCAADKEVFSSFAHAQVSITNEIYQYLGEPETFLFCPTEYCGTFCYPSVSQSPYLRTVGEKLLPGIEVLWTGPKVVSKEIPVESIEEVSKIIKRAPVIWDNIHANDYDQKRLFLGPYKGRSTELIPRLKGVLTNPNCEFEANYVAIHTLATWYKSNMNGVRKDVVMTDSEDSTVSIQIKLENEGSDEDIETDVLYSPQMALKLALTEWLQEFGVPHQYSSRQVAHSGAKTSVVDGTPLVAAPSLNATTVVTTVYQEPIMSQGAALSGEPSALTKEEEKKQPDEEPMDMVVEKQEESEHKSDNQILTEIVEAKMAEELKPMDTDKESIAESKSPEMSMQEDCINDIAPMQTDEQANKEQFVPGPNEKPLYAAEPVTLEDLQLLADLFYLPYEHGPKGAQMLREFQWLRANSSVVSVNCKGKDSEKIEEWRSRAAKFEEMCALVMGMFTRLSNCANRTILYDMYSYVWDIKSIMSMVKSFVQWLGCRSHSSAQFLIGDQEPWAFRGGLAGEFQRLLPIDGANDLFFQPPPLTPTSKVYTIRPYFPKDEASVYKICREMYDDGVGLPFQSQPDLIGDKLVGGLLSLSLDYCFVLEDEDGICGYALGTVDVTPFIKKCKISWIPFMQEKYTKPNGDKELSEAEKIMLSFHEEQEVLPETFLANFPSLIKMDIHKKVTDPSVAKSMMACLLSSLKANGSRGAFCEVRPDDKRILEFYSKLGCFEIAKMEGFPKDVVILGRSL
# PROTOCOL SUMMARY: Cell-based ELISA for cellular activity of O-GlcNAcase inhibitors (O-GlcNAcylated protein, RL-2 antibody)
ATTRIBUTE MEASURED: EC50 (µM)
State the answer as a number, implicitly in µM.

Query: Identify EC50 associated with the molecule OC[C@H]1O[C@@H]2SC(N3CCC3)=N[C@@H]2[C@@H](O)C1O (stereo in doubt)
Response: 0.028

====

# STUDY SYSTEM: human O-GlcNAcase (Homo sapiens (Human), UniProt O60502)
# Sequence (O60502 whole entry): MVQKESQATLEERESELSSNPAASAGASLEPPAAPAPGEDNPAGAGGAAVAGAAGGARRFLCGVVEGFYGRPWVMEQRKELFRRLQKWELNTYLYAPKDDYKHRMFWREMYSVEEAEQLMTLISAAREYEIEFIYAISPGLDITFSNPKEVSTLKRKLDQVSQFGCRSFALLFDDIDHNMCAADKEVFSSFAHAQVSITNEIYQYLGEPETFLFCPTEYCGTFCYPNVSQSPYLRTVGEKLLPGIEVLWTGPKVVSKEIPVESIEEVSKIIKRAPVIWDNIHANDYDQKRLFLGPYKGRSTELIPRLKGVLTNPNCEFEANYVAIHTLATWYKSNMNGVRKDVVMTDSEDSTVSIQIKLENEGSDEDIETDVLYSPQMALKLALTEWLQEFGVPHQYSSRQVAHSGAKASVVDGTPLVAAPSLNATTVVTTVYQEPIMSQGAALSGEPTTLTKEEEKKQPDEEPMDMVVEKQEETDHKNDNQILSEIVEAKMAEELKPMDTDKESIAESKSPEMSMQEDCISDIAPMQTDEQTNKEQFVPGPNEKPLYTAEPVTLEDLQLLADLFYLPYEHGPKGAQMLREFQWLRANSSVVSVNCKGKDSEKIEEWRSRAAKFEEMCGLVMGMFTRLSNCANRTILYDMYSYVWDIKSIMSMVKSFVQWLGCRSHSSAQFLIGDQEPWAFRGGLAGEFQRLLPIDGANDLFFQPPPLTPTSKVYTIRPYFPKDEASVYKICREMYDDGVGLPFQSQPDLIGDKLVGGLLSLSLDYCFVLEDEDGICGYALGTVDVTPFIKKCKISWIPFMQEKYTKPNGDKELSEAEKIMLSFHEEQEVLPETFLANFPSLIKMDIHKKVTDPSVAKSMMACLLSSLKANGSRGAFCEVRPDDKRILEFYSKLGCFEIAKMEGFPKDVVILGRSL
# PROTOCOL SUMMARY: Fluorescence-based assay for determination of KI values for inhibition of O-GlcNAcase activity
# Format: biochemical
# SETUP CONDITIONS: purified human O-GlcNAcase 0.7 nM, 2 mM 4-Methylumbelliferyl N-acetyl-β-D-glucosaminide, pH 7.0, Cheng-Prusoff; read-out: Fluorescence-based hOGA Ki
Reported pKi by item:
The scale used: pKi is minus the common logarithm of the concentration in molar units.

// below: answered compounds
{"columns": ["COMPOUND", "pKi"],
 "data": [
  ["COC1CN(C2=N[C@@H]3[C@@H](O)[C@H](O)[C@@H](CO)O[C@@H]3S2)C1 [Example 5]", 6.85],
  ["OC[C@H]1O[C@@H]2SC(N3CC(F)C3)=N[C@@H]2[C@@H](O)[C@@H]1O [Example 3]", 7.52]
]}

Query: Write down the reported pKi (system: human O-GlcNAcase (Homo sapiens (Human), UniProt O60502)) of OC[C@H]1O[C@@H]2SC(N3CCCC3)=N[C@@H]2[C@@H](O)[C@@H]1O [Example 7]
Response: 7.89

Query: Write down the reported pKi (system: human O-GlcNAcase (Homo sapiens (Human), UniProt O60502)) of O[C@H]1[C@H](O)[C@@H](CNC2CC2)O[C@@H]2SC(N3CCC3)=N[C@H]12 [Example 16]
Response: 7.00

Query: Write down the reported pKi (system: human O-GlcNAcase (Homo sapiens (Human), UniProt O60502)) of OC[C@H]1O[C@@H]2SC(N3CCOCC3)=N[C@@H]2[C@@H](O)[C@@H]1O [Example 14]
Response: 6.54

Query: Write down the reported pKi (system: human O-GlcNAcase (Homo sapiens (Human), UniProt O60502)) of CN(C)C(=O)OC[C@H]1O[C@@H]2SC(N3CCC3)=N[C@@H]2[C@@H](O)[C@@H]1O [Example 18]
Response: 6.46
